Origin of measurements: paper PMC2994686

- System Tested: AnSt-D7L1 (Anopheles stephensi)
- Test Conditions: read-out: dissociation constant (Kd); ITC, 35°C, 40 µM ligand in syringe, 4 µM AnSt-D7L1 in cell, single binding site model
pKd: −log10 of the molar value.
Measured pKd accompanies every entry in the list below.

| Compound | pKd |
| --- | --- |
| CCCCC[C@H](O)/C=C/[C@H]1CC2CC(C2)[C@@H]1C/C=C\CCCC(=O)O [carbocyclic TXA2] | ~7.42 |

Attention now turns to another entry.
Task: Identify measured pKd associated with CCCCC[C@H](O)/C=C/[C@@H]1[C@@H](C/C=C\CCCC(=O)O)[C@H]2CO[C@@H]1C2 [U46619]
Result: ~7.01

----------
// reported pKd for each item listed
- System Tested: AnSt-D7L1 (Anopheles stephensi, UniProt Q95NY5)
- Sequence (Q95NY5 19-315 limits assumed): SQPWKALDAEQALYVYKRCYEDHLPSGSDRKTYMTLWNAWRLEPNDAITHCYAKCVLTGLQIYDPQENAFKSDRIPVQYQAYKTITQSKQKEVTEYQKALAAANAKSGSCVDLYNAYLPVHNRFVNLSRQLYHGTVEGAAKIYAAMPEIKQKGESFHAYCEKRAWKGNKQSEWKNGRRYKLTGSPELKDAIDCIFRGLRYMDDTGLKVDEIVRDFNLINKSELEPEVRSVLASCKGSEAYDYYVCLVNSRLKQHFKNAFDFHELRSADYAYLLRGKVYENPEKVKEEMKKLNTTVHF
- Measurement Protocol: biochemical
Scale note: pKd = -log10(concentration in M).

| Compound | System Tested | Observation Type | Readout Value |
| --- | --- | --- | --- |
| CCCCC[C@H](O)/C=C/[C@H]1OC(O)C[C@H](O)[C@@H]1C/C=C\CCCC(=O)O (stereo partly shown) [TXB2, thromboxane B2] | AnSt-D7L1 (Anopheles stephensi, UniProt Q95NY5) | pKd | 5.89 |
| CCCCC/C=C\C\C=C/C=C/C=C/[C@@H](SC[C@H](N)C(=O)NCC(=O)O)[C@@H](O)CCCC(=O)O [LTD4, leukotriene D4] | AnSt-D7L1 (Anopheles stephensi, UniProt Q95NY5) | pKd | 8.30 |
| CCCCC[C@H](O)/C=C/[C@H]1[C@H](O)CC(=O)[C@@H]1C/C=C\CCCC(=O)O [PGE2, prostaglandin E2] | AnSt-D7L1 (Anopheles stephensi, UniProt Q95NY5) | pKd | 5.72 |

Now look at this entry.
Task: Return reported pKd. Input compound: CCCCC[C@H](O)/C=C/[C@@H]1[C@@H](C/C=C\CCCC(=O)O)[C@@H](O)C[C@H]1O [PGF2α, prostaglandin F2α]
Result: 6.17
